tested on: 349418-098-R tumor spheroid viability; experiment: Anticancer human tumor 349418-098-R patient-derived lung adenocarcinoma cell line growth inhibition; details: second compound 0.3 µM; first compound 1 µM; stronger effect = lower value; spheroids with HUVEC and MSC
property: viability, T/C (%)
Note: unit % is implicit; provide only the numeric part.

>>> observed_result("COc1cc(C)[nH]c(=O)c1CN1CCc2c(Cl)cc(C(OC)C3COC3)c(Cl)c2C1=O (stereo unspecified) + CC[C@@]1(O)C(=O)OCc2c1cc1n(c2=O)Cc2cc3c(CN(C)C)c(O)ccc3nc2-1")
3.5
>>> observed_result("CC(C)n1c(=O)n(C)c2cnc3cc(F)c(-c4ccc(OCCCN5CCCCC5)nc4)cc3c21 + CC[C@@]1(O)C(=O)OCc2c1cc1n(c2=O)Cc2cc3c(CN(C)C)c(O)ccc3nc2-1")
6.26
>>> observed_result("Cc1cc(C)c(CNC(=O)c2cc(-c3ccc(CN4CCOCC4)cc3)cc3c2cnn3C2CCCC2)c(=O)[nH]1 + CC[C@@]1(O)C(=O)OCc2c1cc1n(c2=O)Cc2cc3c(CN(C)C)c(O)ccc3nc2-1")
3.16
>>> observed_result("[2H]c1nc(C)nc([2H])c1-c1cc(NC[C@@H](C)c2cccc3c(C(=O)NC)ccnc23)ncn1 + CC[C@@]1(O)C(=O)OCc2c1cc1n(c2=O)Cc2cc3c(CN(C)C)c(O)ccc3nc2-1")
4.06
>>> observed_result("CC1COCCN1c1cc(-c2ccnn2C)c2ccnc(-c3ccn[nH]3)c2n1 (stereo unspecified) + CC[C@@]1(O)C(=O)OCc2c1cc1n(c2=O)Cc2cc3c(CN(C)C)c(O)ccc3nc2-1")
3.58

Proceeding to the next compound to report its viability, T/C.
(Q) For the compound COc1ccc([C@@H](O)c2cc(-c3ncnc4cc(N5CCOCC5)ccc34)c(F)cc2Cl)nn1 + CC[C@@]1(O)C(=O)OCc2c1cc1n(c2=O)Cc2cc3c(CN(C)C)c(O)ccc3nc2-1 , report viability, T/C.
(A) 4.78

====

tested on: 349418-098-R tumor spheroid viability; experiment: Anticancer human tumor 349418-098-R cell line growth inhibition; settings: second compound 1 µM; first compound 10 µM; stronger effect = lower value; spheroids with HUVEC and MSC;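 further: spheroids exposed to compound for 7 days before measurement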;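 on viability, T/C: percent of vehicle control viability with 100% = DMSO-treated spheroids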
property: viability, T/C (%)
Note: unit % is implicit; provide only the numeric part.

Example molecules with recorded viability, T/C:
>>> observed_result("CC1COCCN1c1cc(-c2ccnn2C)c2ccnc(-c3ccn[nH]3)c2n1 (stereo unspecified) + Cn1nnc2c(C(N)=O)ncn2c1=O")
10.9
>>> observed_result("CC(C)n1c(=O)n(C)c2cnc3cc(F)c(-c4ccc(OCCCN5CCCCC5)nc4)cc3c21 + Cn1nnc2c(C(N)=O)ncn2c1=O")
48.8
>>> observed_result("[2H]c1nc(C)nc([2H])c1-c1cc(NC[C@@H](C)c2cccc3c(C(=O)NC)ccnc23)ncn1 + Cn1nnc2c(C(N)=O)ncn2c1=O")
97.3

(Q) State measured viability, T/C of the molecule COc1ccc([C@@H](O)c2cc(-c3ncnc4cc(N5CCOCC5)ccc34)c(F)cc2Cl)nn1 + Cn1nnc2c(C(N)=O)ncn2c1=O with 349418-098-R tumor spheroid viability.
(A) 26.4

(Q) State measured viability, T/C of the molecule COc1cc(C)[nH]c(=O)c1CN1CCc2c(Cl)cc(C(OC)C3COC3)c(Cl)c2C1=O (stereo unspecified) + Cn1nnc2c(C(N)=O)ncn2c1=O with 349418-098-R tumor spheroid viability.
(A) 79.4

(Q) State measured viability, T/C of the molecule Cc1cc(C)c(CNC(=O)c2cc(-c3ccc(CN4CCOCC4)cc3)cc3c2cnn3C2CCCC2)c(=O)[nH]1 + Cn1nnc2c(C(N)=O)ncn2c1=O with 349418-098-R tumor spheroid viability.
(A) 25.8

====

Below, each of the compounds is paired with its reported viability, T/C value.
test system: 349418-098-R tumor spheroid viability; experiment: Anticancer human tumor 349418-098-R cell line growth inhibition; details: second compound 0.3 µM; first compound 3 µM; stronger effect = lower value; spheroids with HUVEC and MSC;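 further: spheroids exposed to compound for 7 days before measurement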;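 on viability, T/C: percent of vehicle control viability with 100% = DMSO-treated spheroids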
Note: unit % is implicit; provide only the numeric part.

Example compounds with recorded viability, T/C:
>>> observed_result("Cc1sc2c(c1C)C(c1ccc(Cl)cc1)=NC(CC(=O)Nc1ccc(O)cc1)c1nnc(C)n1-2 (centres undefined) + CC[C@@]1(O)C(=O)OCc2c1cc1n(c2=O)Cc2cc3c(CN(C)C)c(O)ccc3nc2-1")
0.39
>>> observed_result("O=C(c1cc(Cc2n[nH]c(=O)c3ccccc23)ccc1F)N1CCN(C(=O)C2CC2)CC1 + CC[C@@]1(O)C(=O)OCc2c1cc1n(c2=O)Cc2cc3c(CN(C)C)c(O)ccc3nc2-1")
4.53
>>> observed_result("CNCc1ccc(-c2cc(-c3nc(-c4ccc(S(=O)(=O)C(C)C)cc4)cnc3N)on2)cc1 + CC[C@@]1(O)C(=O)OCc2c1cc1n(c2=O)Cc2cc3c(CN(C)C)c(O)ccc3nc2-1")
0.36

(Q) For the compound Cn1ncnc1[C@H]1c2n[nH]c(=O)c3cc(F)cc(c23)N[C@@H]1c1ccc(F)cc1 + CC[C@@]1(O)C(=O)OCc2c1cc1n(c2=O)Cc2cc3c(CN(C)C)c(O)ccc3nc2-1 , report viability, T/C.
(A) 1.17

====

test system: 349418-098-R tumor spheroid viability; test: Anticancer human tumor 349418-098-R cell line growth inhibition; settings: second compound 0.00949 µM; first compound 0.0316 µM; stronger effect = lower value; spheroids with HUVEC and MSC;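 further: spheroids exposed to compound for 7 days before measurement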;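 on viability, T/C: percent of vehicle control viability with 100% = DMSO-treated spheroids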
Below, each of the compounds is paired with its reported viability, T/C value.

Example compounds with recorded viability, T/C:
>>> observed_result("COc1ccc([C@@H](O)c2cc(-c3ncnc4cc(N5CCOCC5)ccc34)c(F)cc2Cl)nn1 + CC[C@@]1(O)C(=O)OCc2c1cc1n(c2=O)Cc2cc3c(CN(C)C)c(O)ccc3nc2-1")
"90.1%"
>>> observed_result("Cc1cc(C)c(CNC(=O)c2cc(-c3ccc(CN4CCOCC4)cc3)cc3c2cnn3C2CCCC2)c(=O)[nH]1 + CC[C@@]1(O)C(=O)OCc2c1cc1n(c2=O)Cc2cc3c(CN(C)C)c(O)ccc3nc2-1")
"93.4%"
>>> observed_result("[2H]c1nc(C)nc([2H])c1-c1cc(NC[C@@H](C)c2cccc3c(C(=O)NC)ccnc23)ncn1 + CC[C@@]1(O)C(=O)OCc2c1cc1n(c2=O)Cc2cc3c(CN(C)C)c(O)ccc3nc2-1")
"93.7%"

(Q) For the compound COc1cc(C)[nH]c(=O)c1CN1CCc2c(Cl)cc(C(OC)C3COC3)c(Cl)c2C1=O (stereo unspecified) + CC[C@@]1(O)C(=O)OCc2c1cc1n(c2=O)Cc2cc3c(CN(C)C)c(O)ccc3nc2-1 , report viability, T/C.
(A) 104%

(Q) For the compound CC(C)n1c(=O)n(C)c2cnc3cc(F)c(-c4ccc(OCCCN5CCCCC5)nc4)cc3c21 + CC[C@@]1(O)C(=O)OCc2c1cc1n(c2=O)Cc2cc3c(CN(C)C)c(O)ccc3nc2-1 , report viability, T/C.
(A) 67.6%

(Q) For the compound CC1COCCN1c1cc(-c2ccnn2C)c2ccnc(-c3ccn[nH]3)c2n1 (stereo unspecified) + CC[C@@]1(O)C(=O)OCc2c1cc1n(c2=O)Cc2cc3c(CN(C)C)c(O)ccc3nc2-1 , report viability, T/C.
(A) 42.4%

====

system: 349418-098-R tumor spheroid viability; assay: Anticancer human tumor 349418-098-R cell line growth inhibition; settings: second compound 0.03 µM; first compound 0.3 µM; spheroids with HUVEC and MSC; active = viability on the fitted dose curve at most 10% of control; inactive = the rest;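 further: spheroids exposed to compound for 7 days before measurement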
A correct response names exactly one class from True for active, False for inactive

>>> class_assignment("Cn1ncnc1[C@H]1c2n[nH]c(=O)c3cc(F)cc(c23)N[C@@H]1c1ccc(F)cc1 + CC[C@@]1(O)C(=O)OCc2c1cc1n(c2=O)Cc2cc3c(CN(C)C)c(O)ccc3nc2-1")
"False"

(Q) What classification did CNCc1ccc(-c2cc(-c3nc(-c4ccc(S(=O)(=O)C(C)C)cc4)cnc3N)on2)cc1 + CC[C@@]1(O)C(=O)OCc2c1cc1n(c2=O)Cc2cc3c(CN(C)C)c(O)ccc3nc2-1 end up with in this test?
(A) False

(Q) What classification did O=C(c1cc(Cc2n[nH]c(=O)c3ccccc23)ccc1F)N1CCN(C(=O)C2CC2)CC1 + CC[C@@]1(O)C(=O)OCc2c1cc1n(c2=O)Cc2cc3c(CN(C)C)c(O)ccc3nc2-1 end up with in this test?
(A) False

(Q) What classification did Cc1sc2c(c1C)C(c1ccc(Cl)cc1)=NC(CC(=O)Nc1ccc(O)cc1)c1nnc(C)n1-2 (centres undefined) + CC[C@@]1(O)C(=O)OCc2c1cc1n(c2=O)Cc2cc3c(CN(C)C)c(O)ccc3nc2-1 end up with in this test?
(A) True

====

test system: 349418-098-R tumor spheroid viability; assay: Anticancer human tumor 349418-098-R cell line growth inhibition; details: curve of first compound; second compound 31.6 µM; spheroids with HUVEC and MSC;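 further: spheroids exposed to compound for 7 days before measurement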
property: pIC50
The meaning of pIC50 here: minus log10 of the concentration in molar units.

>>> observed_result("CC(C)n1c(=O)n(C)c2cnc3cc(F)c(-c4ccc(OCCCN5CCCCC5)nc4)cc3c21 + Cn1nnc2c(C(N)=O)ncn2c1=O")
5.05
>>> observed_result("O=C(c1cc(Cc2n[nH]c(=O)c3ccccc23)ccc1F)N1CCN(C(=O)C2CC2)CC1 + Cn1nnc2c(C(N)=O)ncn2c1=O")
5.14

(Q) For the compound CNCc1ccc(-c2cc(-c3nc(-c4ccc(S(=O)(=O)C(C)C)cc4)cnc3N)on2)cc1 + Cn1nnc2c(C(N)=O)ncn2c1=O , report pIC50.
(A) 6.59

(Q) For the compound COc1ccc([C@@H](O)c2cc(-c3ncnc4cc(N5CCOCC5)ccc34)c(F)cc2Cl)nn1 + Cn1nnc2c(C(N)=O)ncn2c1=O , report pIC50.
(A) 5.37

(Q) For the compound CC1COCCN1c1cc(-c2ccnn2C)c2ccnc(-c3ccn[nH]3)c2n1 (stereo unspecified) + Cn1nnc2c(C(N)=O)ncn2c1=O , report pIC50.
(A) 7.17
